Data provenance is paper PMC10893082.

# assay protocol: physchem
# Type: physicochemical
# measurement parameters: 37 °C, thermodynamic from solid
readout name: solubility at 72 h

Data point: C=C1CC[C@@H]2[C@](C)(CO)[C@H](O)CC[C@@]2(C)[C@@H]1C/C=C1/C(=O)OC[C@H]1O [AGP, andrographolide] ; solubility at 72 h = ~38 mg/mL
